For each of the compounds below, state its EC50.
Tested on: Human immunodeficiency virus 1
Experiment: Antiviral activity against Human immunodeficiency virus 1 NL4-3 infected in human MT4 cells measured on day 3 post infection by Nano-Glo luciferase reporter gene assay
Type: functional, organism-based
Details: Human immunodeficiency virus 1, NL4-3, MT4, 72 h
# number only, unit nM dropped from output

Task item: Give its EC50 value. Item: "CC1=C[C@@H]2C(=O)[C@]3(C=C(C)[C@H](O)[C@@]3(O)[C@@H]1OC(=O)c1ccc3ccccc3c1)[C@H](C)C[C@@H]1[C@H]2C1(C)C"
Reply: 15.5

Task item: # input compound: "CC1=C[C@@H]2C(=O)[C@]3(C=C(C)[C@H](OC(=O)c4ccccc4)[C@@]3(O)[C@@H]1O)[C@H](C)C[C@@H]1[C@H]2C1(C)C" ; wanted: its EC50
Reply: 30.5

Task item: Please give the measured EC50 for this compound: "CC(=O)OCC1=C[C@@H]2C(=O)[C@]3(C=C(C)[C@H](O)[C@@]3(O)[C@@H]1O)[C@H](C)C[C@@H]1[C@H]2C1(C)C"
Reply: 1080

Task item: Quick check: EC50 of "CC1=C[C@@H]2C(=O)[C@]3(C=C(C)[C@H](OC(=O)/C=C/c4ccccc4)[C@@]3(O)[C@@H]1O)[C@H](C)C[C@@H]1[C@H]2C1(C)C" ?
Reply: 188

Task item: Need EC50, item CCCCCCCCCCCC(=O)O[C@@]12C[C@@H](C)[C@]34C=C(C)[C@H](OC(=O)C(C)C(C)C)[C@@]3(O)[C@H](O)C(CO)=C[C@H](C4=O)[C@@H]1C2(C)C (stereo partly specified)
Reply: 0.8
